Entries and their measured pKd follow.
Molecular target: T1, Human EphA1 (Human, UniProt P21709 26-547)
T1 construct: extracellular domain; also called EphA1 (Ecto), Human
T1 sequence (looked up): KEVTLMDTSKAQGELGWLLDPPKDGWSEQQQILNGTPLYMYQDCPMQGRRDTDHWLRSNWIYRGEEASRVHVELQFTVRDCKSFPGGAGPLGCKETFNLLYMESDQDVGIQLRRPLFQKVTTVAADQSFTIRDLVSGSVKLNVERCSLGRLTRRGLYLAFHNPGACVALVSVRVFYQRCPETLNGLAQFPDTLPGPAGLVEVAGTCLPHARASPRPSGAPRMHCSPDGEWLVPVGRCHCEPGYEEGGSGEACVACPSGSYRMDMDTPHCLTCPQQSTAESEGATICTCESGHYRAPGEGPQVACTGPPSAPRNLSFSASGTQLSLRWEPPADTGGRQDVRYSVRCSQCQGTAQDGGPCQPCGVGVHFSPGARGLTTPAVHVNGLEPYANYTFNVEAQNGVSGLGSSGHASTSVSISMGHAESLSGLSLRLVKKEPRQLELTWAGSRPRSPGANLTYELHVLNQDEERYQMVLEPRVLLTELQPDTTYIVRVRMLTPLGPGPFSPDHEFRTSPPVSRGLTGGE
Experiment: FP direct binding, selectivity
pKd: −log10 of the molar value. Numbered stars: 1 amine (or outer) side, 2 acyl side, 3 side chain; on linkers, the order of the positions; unused ones are H or OH. Bridge positions count the residues as written; N and C are the ends. Square brackets hold non-standard residues; d marks the D form. Ends that are not written are not given here. K(Fl) = Lys carrying 5(6)-carboxyfluorescein; 1Nal = N[C@@H](Cc1cccc2ccccc12)C(=O)O; TBMB = c1c(C[*:1])cc(C[*:3])cc1C[*:2]; Gly(cPent) = N[C@H](C(=O)O)C1CCCC1; hArg = N=C(N)NCCCC[C@H](N)C(=O)O; Tle = CC(C)(C)[C@H](N)C(=O)O; AF488 = AlexaFluor488 label; Aib = CC(C)(N)C(=O)O; βAla = NCCC(=O)O; Sar = CNCC(=O)O

{"columns": ["binder", "pKd"],
 "data": [
  ["{AF488-βAla}-[Sar][Sar][Sar][Sar][Sar][Sar][Sar][Sar][Sar][Sar]H[dD]VPCP[1Nal]G[Aib]F[1Nal]CP[Tle]NR[Aib]GC (linker 15-22-29 via TBMB) [Compound 144]", 5.77],
  ["ACMNDWLCSLGWTCA[Sar][Sar][Sar][Sar][Sar][Sar]-{K(Fl)} (linker 2-8-14 via TBMB) [Compound 1]", 5.79],
  ["{AF488-βAla}-[Sar][Sar][Sar][Sar][Sar][Sar][Sar][Sar][Sar][Sar]H[dD]VPCP[1Nal]G[Aib]F[1Nal]CP[Tle]NR[Aib][dD]C (linker 15-22-29 via TBMB) [Compound 145]", 5.14],
  ["{AF488-βAla}-[Sar][Sar][Sar][Sar][Sar][Sar][Sar][Sar][Sar][Sar]H[dD][Gly(cPent)]PCP[1Nal]G[Aib]F[1Nal]CP[Tle]N[hArg]P[dD]C (linker 15-22-29 via TBMB) [Compound 147]", 5.91],
  ["ACPWGPFWCPVNRPGCA (N-terminal Fl-G-Sar5 before the entry; three Cys cyclised on TBMB, bicyclic peptide, fluorescent) [Compound 66]", 5.93]
]}

These data points were gathered from patent US20200338203A1.
